target: Calcium/calmodulin-dependent protein kinase type II subunit alpha (Rattus norvegicus); assay: Kinase Inhibition Assay; conditions: 25 °C
Sequence (P11275 whole entry): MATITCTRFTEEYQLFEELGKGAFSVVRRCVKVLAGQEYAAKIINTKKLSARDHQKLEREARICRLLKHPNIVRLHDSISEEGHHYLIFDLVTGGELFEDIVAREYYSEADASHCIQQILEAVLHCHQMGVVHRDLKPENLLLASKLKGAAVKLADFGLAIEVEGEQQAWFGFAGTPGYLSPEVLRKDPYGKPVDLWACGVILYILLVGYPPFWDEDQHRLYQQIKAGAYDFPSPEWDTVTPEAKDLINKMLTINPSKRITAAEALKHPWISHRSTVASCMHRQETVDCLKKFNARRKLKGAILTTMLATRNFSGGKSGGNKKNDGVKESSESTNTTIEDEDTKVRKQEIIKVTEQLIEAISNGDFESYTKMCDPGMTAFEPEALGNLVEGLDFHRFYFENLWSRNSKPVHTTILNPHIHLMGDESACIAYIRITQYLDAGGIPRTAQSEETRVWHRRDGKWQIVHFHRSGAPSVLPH
pEC50: −log10 of the molar value.
measurement-label: pEC50

Some solved cases for reference:
get_value(item= O=C1NC(=O)c2c1c1c3ccccc3[nH]c1c1[nH]c3ccc(Br)cc3c21 , readout=pEC50) returns 7.15

get_value(item= Cn1c2ccccc2c2c3c(c4c5ccc(Br)cc5[nH]c4c21)C(=O)NC3=O [indolocarbazole deriv. 4(f)] , readout=pEC50) returns 7.10

a. O=C1NC(=O)c2c1c1c3ccccc3[nH]c1c1[nH]c3cc(F)ccc3c21
b. O=C1NC(=O)c2c1c1c3ccccc3[nH]c1c1[nH]c3cc(Br)ccc3c21
**Query** // select label with min value of measured pEC50 from [ a , b ] Please respond with the label that marks your chosen entry.
**Result** b
